system: male C57BL mice; test: In vivo stimulation of intestinal growth, 800 nmol/kg (Example 10); conditions: colon mass relative to BW, % vs. [Gly2]GLP-2; 800 nmol/kg s.c. once daily for 3 days

{"SUBSTANCE": "H-HGEGSFSSELSTILDALAARDFIAWLIATKITDK-OH [ZP2242]", "Colon, %": 107}
{"SUBSTANCE": "H-HGEGSFSDELATILEALAAADFIAWLIATKITD-NH2 [ZP2264]", "Colon, %": 109}
{"SUBSTANCE": "H-HGEGSFSDELATILEALAASDFISWLISTKITD-NH2 [ZP2268]", "Colon, %": 112}
{"SUBSTANCE": "H-HGEGSFSDELATILESLAAADFISWLIATKITD-NH2 [ZP2272]", "Colon, %": 105}
{"SUBSTANCE": "H-HGEGSFSDELSTILESLAAADFIAWLIATKITD-NH2 [ZP2267]", "Colon, %": 109}
{"SUBSTANCE": "H-[Gly2]hGLP-2-OH (H-HGDGSFSDEMNTILDNLAARDFINWLIQTKITD-OH) [[Gly2]GLP-2, GLP-2 with alanine in position 2 replaced with glycine, reference compound]", "Colon, %": 100}
{"SUBSTANCE": "H-HGEGSFSDELKTILESLAAADFIEWLIQTKITD-NH2 [ZP2269]", "Colon, %": 95}
{"SUBSTANCE": "H-HGEGSFSDELETILEELAAEDFIEWLIETKITD-NH2 [ZP2266]", "Colon, %": 101}
